// reported protein stability index per item
B1: CAMK2D (parent)
chain: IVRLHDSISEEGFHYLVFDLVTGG

Variants of: B1
TEST SUMMARY: protein stability index of a GFP-peptide fusion (GPS, HEK-293T) (PSI 1-6); higher = more stable;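 note: lentivirally expressed fusions sorted by FACS into six bins by GFP to DsRed ratio, PSI derived from sequencing read proportions per bin multiplied by bin number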
TEST CONTEXT: c terminus: a fixed tail appended
Kindly provide the number alone.

MUTANT ID | protein stability index
I1H | 3.43
E10F | 2.4
G12I | 2.16
V21G | 3.19
I1V | 2.13

Fill blank: measured protein stability index of the variant F18N is ____.
2.84

Okay, and L16P ?
1.74

Okay, and L20D ?
1.67

Okay, and Y15D ?
1.89

Provenance of the data: the supplement of paper PMC10567573
